Target: Peroxisome proliferator-activated receptor gamma (Homo sapiens, UniProt P37231)
Sequence (P37231 whole entry, the tested form may be a part): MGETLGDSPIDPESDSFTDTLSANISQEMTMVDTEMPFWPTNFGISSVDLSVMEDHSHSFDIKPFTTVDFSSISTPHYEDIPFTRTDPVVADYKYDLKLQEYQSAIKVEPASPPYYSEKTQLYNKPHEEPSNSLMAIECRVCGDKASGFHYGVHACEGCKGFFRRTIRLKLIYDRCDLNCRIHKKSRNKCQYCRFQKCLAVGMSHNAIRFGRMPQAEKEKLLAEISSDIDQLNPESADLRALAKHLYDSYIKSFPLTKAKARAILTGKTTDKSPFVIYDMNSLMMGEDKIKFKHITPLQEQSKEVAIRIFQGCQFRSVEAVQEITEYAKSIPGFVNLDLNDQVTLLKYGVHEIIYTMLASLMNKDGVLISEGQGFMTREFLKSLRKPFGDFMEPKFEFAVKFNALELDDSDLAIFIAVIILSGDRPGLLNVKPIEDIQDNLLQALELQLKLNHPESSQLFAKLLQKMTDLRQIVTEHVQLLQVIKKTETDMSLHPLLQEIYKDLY
Experiment: Transactivation of GAL4-fused human PPARgamma LBD expressed in HEK293 cells after 18 hrs by luciferase reporter gene assay
pEC50: −log10 of the molar value.
experimental.readout: pEC50

>>> print(df.to_string())
                               smiles_input  experimental_readout  measurement
0  Cc1nc(-c2ccc(C(F)(F)F)cc2)sc1COc1ccc2c(c1)OC[C@H]2CC(=O)O                 pEC50       < 5.00

====

Biological target: Free fatty acid receptor 1 (Homo sapiens, UniProt O14842)
Sequence (O14842 whole entry): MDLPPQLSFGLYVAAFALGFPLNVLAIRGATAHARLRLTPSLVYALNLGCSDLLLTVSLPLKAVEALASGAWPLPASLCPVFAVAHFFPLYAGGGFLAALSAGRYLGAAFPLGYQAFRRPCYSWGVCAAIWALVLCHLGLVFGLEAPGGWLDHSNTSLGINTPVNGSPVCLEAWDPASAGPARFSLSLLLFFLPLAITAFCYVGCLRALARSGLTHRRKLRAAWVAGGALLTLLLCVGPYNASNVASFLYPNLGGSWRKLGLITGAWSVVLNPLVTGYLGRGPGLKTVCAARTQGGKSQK
Experiment: Agonist activity at human FFA1 receptor expressed in CHO cells by Fluo 4-AM dye based FLIPR assay
pEC50: −log10 of the molar value.
Listing of entries alongside the reported pEC50.
experimental.readout: pEC50

>>> df
                                    compound  experimental_readout  relation_sign  measurement
 0  Cc1nc(-c2ccc(Cl)cc2)sc1COc1ccc2c(c1)OCC2CC(=O)O (stereo unspecified)                 pEC50              =         6.98
 1  [2H]C([2H])(Cc1ccc(OCc2sc(-c3ccccc3)nc2C)cc1)C(=O)O                 pEC50              =         6.23
 2  Cc1cc(OCc2sc(-c3ccccc3)nc2C)ccc1OCC(=O)O                 pEC50              <         5.00
 3  COc1ccc(-c2nc(C)c(COc3ccc4c(c3)OCC4CC(=O)O)s2)cc1 (stereo unspecified)                 pEC50              =         6.81
 4   O=C(O)COc1ccc(OCc2nc(-c3ccccc3)cs2)cc1F                 pEC50              <         5.00
 5   O=C(O)COc1ccc(OCc2nnc(-c3ccccc3)s2)cc1F                 pEC50              <         5.00
 6  Cc1nc(-c2ccc(F)cc2)sc1COc1ccc(S(=O)(=O)CC(=O)O)cc1                 pEC50              =         6.60
 7  Cc1nc(-c2cccc(F)c2)sc1COc1ccc(OCC(=O)O)c(F)c1                 pEC50              =         6.73
 8   Cc1cc(OCc2csc(-c3ccccc3)n2)ccc1OCC(=O)O                 pEC50              <         5.00
 9  [2H]C([2H])(Cc1ccc(OCc2sc(-c3ccc(F)cc3)nc2C)cc1)C(=O)O                 pEC50              =         6.60
10   O=C(O)COc1ccc(OCc2csc(-c3ccccc3)n2)cc1F                 pEC50              <         5.00
